Entry source: ChEMBL document CHEMBL4765243

Molecular target: UniProt:P09874
Sequence (P09874 whole entry): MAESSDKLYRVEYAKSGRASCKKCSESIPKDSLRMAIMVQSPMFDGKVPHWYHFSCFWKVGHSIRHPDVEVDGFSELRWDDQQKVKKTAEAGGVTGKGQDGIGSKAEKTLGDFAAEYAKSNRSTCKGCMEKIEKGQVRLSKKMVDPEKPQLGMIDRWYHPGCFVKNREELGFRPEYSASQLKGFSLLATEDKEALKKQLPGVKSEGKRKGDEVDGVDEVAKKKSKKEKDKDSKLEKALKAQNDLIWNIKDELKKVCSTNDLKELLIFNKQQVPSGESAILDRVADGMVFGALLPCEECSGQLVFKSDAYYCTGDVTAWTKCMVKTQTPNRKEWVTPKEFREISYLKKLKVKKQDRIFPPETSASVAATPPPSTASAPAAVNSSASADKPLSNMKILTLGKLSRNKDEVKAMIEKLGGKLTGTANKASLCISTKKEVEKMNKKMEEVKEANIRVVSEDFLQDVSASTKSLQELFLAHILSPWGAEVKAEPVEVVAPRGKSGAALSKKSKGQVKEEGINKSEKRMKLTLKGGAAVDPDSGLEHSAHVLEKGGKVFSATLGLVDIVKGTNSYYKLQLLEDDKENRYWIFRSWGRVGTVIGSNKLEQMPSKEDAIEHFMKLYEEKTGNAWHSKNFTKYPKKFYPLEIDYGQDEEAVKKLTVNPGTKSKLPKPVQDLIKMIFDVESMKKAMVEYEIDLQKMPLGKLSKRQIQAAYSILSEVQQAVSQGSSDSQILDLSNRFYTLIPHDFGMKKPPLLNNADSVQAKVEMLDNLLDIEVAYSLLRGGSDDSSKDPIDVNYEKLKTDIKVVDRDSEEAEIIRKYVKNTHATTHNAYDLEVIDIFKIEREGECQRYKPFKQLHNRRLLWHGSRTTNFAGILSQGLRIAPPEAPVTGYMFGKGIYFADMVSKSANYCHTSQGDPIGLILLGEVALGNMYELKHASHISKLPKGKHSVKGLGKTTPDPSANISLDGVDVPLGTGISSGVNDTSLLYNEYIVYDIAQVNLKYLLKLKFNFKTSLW
Details: dose 100.0 nM, time 30.0 min
Experimental Endpoint: inhibition (%)

{"columns": ["Mol", "Target Or Test System", "inhibition / %"],
 "data": [
  ["COc1cc(/C=N/NC(=S)Nc2ccccc2)cc(Br)c1OC", "UniProt:P09874", 18.2],
  ["COc1cc(Br)c(/C=N/NC(N)=S)cc1OC", "UniProt:P09874", 42.6],
  ["COc1cc(/C=N/NC(N)=S)c(Br)c(Br)c1OC", "UniProt:P09874", 84.6],
  ["COc1cc(/C=N/NC(=S)Nc2ccc(Cl)cc2)c(Br)c(Br)c1OC", "UniProt:P09874", 38.2],
  ["COc1cc(/C=N/NC(=S)Nc2ccccc2)ccc1O", "UniProt:P09874", 20.6]
]}

I. COc1cc(/C=N/NC(N)=S)ccc1O
II. Oc1cc(/C=N/NC(=S)Nc2ccccc2)c(Br)c(Br)c1O
Input: Hi there! Just curious which has the higher inhibition between I and II . Answer = label.
Output: II
(II: 45.9%, I: 28%)
